Assay: protein stability index of a GFP-peptide fusion (yeast GPS) (PSI 1-4); higher = more stable; sorted into four equal gates, so the index is relative within each strain
Settings: doa10∆
What protein stability index was measured for each of the following?
Give bare numbers.

Look over these answered cases.
- entry sequence: "IINSTALMKEKDIRSTL [RPC82]"
  endpoint: "protein stability index"
  readout value: 3.12
- entry sequence: "KFLQVMQKHGYIGEFEY [RPS22A]"
  endpoint: "protein stability index"
  readout value: 2.68

Kindly give each listed record's protein stability index.
1. YDDFIYLSDLKQFFQMT [PCI8]
2. VSIKDSTGCVVGLSQPD [YMR129W/POM152]
3. SLAGFHKVQTKLTRELE [RPS7A]
4. CTFSMEPYHFISNYNTK [SRB8]
5. NHASMDVYNRELDEHTT [BRR2]

Data returned:
1. 2.5
2. 2.09
3. 2.4
4. 1.99
5. 3.27

====

What protein stability index was measured for each of the following?
Test: protein stability index of a GFP-peptide fusion (yeast GPS) (PSI 1-4); higher = more stable; sorted into four equal gates, so the index is relative within each strain
Conditions: ubr1∆
Answers are plain numbers.

Look over these answered cases.
- entry sequence: "RSQDVRSTDRDRVKVIE [CSL4]"
  readout value: 2.97
- entry sequence: "SRYILFEIIFPPTDTNV [POP5]"
  readout value: 1.77

Kindly give each listed record's protein stability index.
1. KKAVKELYEVDVLKVNT [RPL25]
2. LIIQKIPSLQNNIEENL [ECM29]
3. LGLFIHKISFSGTKSEV [YJL039C/NUP192]
4. EIENATKDIFPLQNIHV [RPS1A]
5. YIHLAYSRSVDKEWVFA [SSN2]
6. FDVVLTTFEYIIKERAL [SNF2]

Data returned:
1. 3.13
2. 2.98
3. 2.12
4. 2.25
5. 1.72
6. 2.14

====

Experiment: protein stability index of a GFP-peptide fusion (yeast GPS) (PSI 1-4); higher = more stable; sorted into four equal gates, so the index is relative within each strain
Conditions: san1∆
Tag: 1.0 if measured protein stability index is not below 3, 0.0 if it is.

# count of solved cases: 3
- entry sequence: "KISFNLRLKLFLYEILS [SRB8]"
  class assignment: 0.0
- entry sequence: "QPAKEKGVTEKDAVDYS [RRP6]"
  class assignment: 1.0
- entry sequence: "LTVSIKIALMNIPKPLN [RGR1]"
  class assignment: 0.0

Data request: Given the entry YGSSPKLLATSTKIIML [SRB8] , answer whether its protein stability index meets or surpasses 3.
Data returned: 0.0

Data request: Given the entry SAEYLQMSLEANVVDIT [YJR042W/NUP85] , answer whether its protein stability index meets or surpasses 3.
Data returned: 0.0

Data request: Given the entry SAKAELEKLVDHHPEGL [PRE10] , answer whether its protein stability index meets or surpasses 3.
Data returned: 0.0

Data request: Given the entry SGLPTCDYYNTFLLNNK [RPN2] , answer whether its protein stability index meets or surpasses 3.
Data returned: 0.0

Data request: Given the entry GIVDELAYAVLGIALIA [RPN1] , answer whether its protein stability index meets or surpasses 3.
Data returned: 0.0

Data request: Given the entry SIISSKTSCVVEKRIGK [RGR1] , answer whether its protein stability index meets or surpasses 3.
Data returned: 0.0

Data request: Given the entry RQSSVGSLNATNFSPTP [SNF2] , answer whether its protein stability index meets or surpasses 3.
Data returned: 0.0

Data request: Given the entry ESKPFSSDALSKEKANF [SIR4] , answer whether its protein stability index meets or surpasses 3.
Data returned: 0.0

Data request: Given the entry MASGSTTFTKVAAKWNT [PRP8] , answer whether its protein stability index meets or surpasses 3.
Data returned: 0.0

Data request: Given the entry NGTMINEVIDKLKNENT [PCI8] , answer whether its protein stability index meets or surpasses 3.
Data returned: 0.0

Data request: Given the entry VGKTVKQLIMESQEKYM [NSL1] , answer whether its protein stability index meets or surpasses 3.
Data returned: 0.0

Data request: Given the entry NMKVTILHGSKSQEQRE [PRP28] , answer whether its protein stability index meets or surpasses 3.
Data returned: 1.0

Data request: Given the entry HKKIKVAQPDSLRETNT [SIR2] , answer whether its protein stability index meets or surpasses 3.
Data returned: 0.0

Data request: Given the entry MTTEDPDSNHLSSETGI [SRB4] , answer whether its protein stability index meets or surpasses 3.
Data returned: 1.0

Data request: Given the entry LFKKFNNDFKLSIDKVL [RET1] , answer whether its protein stability index meets or surpasses 3.
Data returned: 0.0

====

Assay: protein stability index of a GFP-peptide fusion (yeast GPS) (PSI 1-4); higher = more stable; sorted into four equal gates, so the index is relative within each strain
Details: san1∆
What protein stability index was measured for each of the following?
Give bare numbers.

Look over these answered cases.
- entry sequence: "IFINYKQTADWLAEKFQ [PRP28]"
  protein stability index: 2.37
- entry sequence: "VGKFLGYVSSLVEPSKV [FAS1]"
  protein stability index: 1.69
- entry sequence: "ELTDEYLAENPDPNFEN [PRP8]"
  protein stability index: 3.36
- entry sequence: "KEISARRYKLLTATPNS [POP1]"
  protein stability index: 2.32

Kindly give each listed record's protein stability index.
1. TKKKSKFMTNSTAFVPT [ARP9]
2. ALRALARSGLRIGRIED [RPS14A]

Data returned:
1: 2.47; 2: 2.33

Kindly give each listed record's protein stability index.
1. GKTGLSNMILGSVELST [YML103C/NUP188]
2. VGRRAANLRVLNSYWVN [RPL15A]

Data returned:
2.34
1.91

Kindly give each listed record's protein stability index.
1. KLVLAARIIAAIPNPED [RPS0A]
2. YSLRLINKEIFHHWLVE [SRB8]
3. TPFSFGTANNNSNTTNQ [YJL041W/NSP1]
4. NIELHSLYTSREPRVVS [PUP1]
5. EAAFRNIKTIAETLAEE [RPS5]
6. KLREKVNDVELAFKKNE [MTW1]
7. DKVDDYTPEEVDKIERE [SMC4]
8. PVNTGVLHVSAKGKSGV [RRP40]

Data returned:
2.31
1.55
3.13
3.22
3.25
3
1.32
2.62

Kindly give each listed record's protein stability index.
1. STGCVVGLSQPDAKIQV [YMR129W/POM152]
2. ELSDKEIYTVEDRPPEY [ISW2]
3. ADVLSILAMTYSENGKH [RPN1]
4. SAVKRLLHVAVSDSNDD [RPN2]
5. ASFGKNLQIRQLFNWCL [DSN1]

Data returned:
1: 2.47; 2: 3.33; 3: 1.45; 4: 2.56; 5: 1.29

====

Experiment: protein stability index of a GFP-peptide fusion (yeast GPS) (PSI 1-4); higher = more stable; sorted into four equal gates, so the index is relative within each strain
Conditions: san1∆
What protein stability index was measured for each of the following?

Look over these answered cases.
- entry sequence: "KNATDLQQAKLRESEIS [SMC3]"
  endpoint: "protein stability index"
  readout value: 3.11
- entry sequence: "DNYFNLQLNEAEEFVAG [SMX3]"
  endpoint: "protein stability index"
  readout value: 2.5
- entry sequence: "SYDKTVKLWEEDPDQEE [YGL100W/SEH1]"
  endpoint: "protein stability index"
  readout value: 3.3
- entry sequence: "LIPEDKRDQYLKSASKE [RPL28]"
  endpoint: "protein stability index"
  readout value: 1.95
- entry sequence: "AAAFSQQQNASSKLYQM [GAL11]"
  endpoint: "protein stability index"
  readout value: 2.82
- entry sequence: "YESQTFSSKNEWRKSAI [PRP8]"
  endpoint: "protein stability index"
  readout value: 3.29

Next, consider the following sequence.
The reported value for VNDRYQIPTPNNTVDPG [CSI1] in terms of protein stability index is 1.71

====

Test: protein stability index of a GFP-peptide fusion (yeast GPS) (PSI 1-4); higher = more stable; sorted into four equal gates, so the index is relative within each strain
Conditions: ubr1∆
What protein stability index was measured for each of the following?

Look over these answered cases.
- entry sequence: "HIHDLEKFSPKSFISKL [SRP54]"
  protein stability index: 2.36
- entry sequence: "LANLIRDALRNIKNTNE [RRP6]"
  protein stability index: 2.49
- entry sequence: "TNWDDHAIIIFGYPETI [YMR153W/NUP53]"
  protein stability index: 2.71
- entry sequence: "VEGPKFTIDAKPPISDS [YLR335W/NUP2]"
  protein stability index: 3.36
- entry sequence: "TVELQVGLKNYDPQRDK [RPL1A]"
  protein stability index: 3.18
- entry sequence: "RTAPKSDNVYLKLLVKL [RPL18A]"
  protein stability index: 3.03
- entry sequence: "VVKGRVEKTLLSDVAFY [RPO31]"
  protein stability index: 2.52
- entry sequence: "QDSIFQRIIADLSADKP [SRB8]"
  protein stability index: 2.52
- entry sequence: "TISKESTPDQRKRVYNI [ESC2]"
  protein stability index: 3.01
- entry sequence: "LRLLEVTDDDRLWLKKV [POP8]"
  protein stability index: 1.61

Kindly give each listed record's protein stability index.
1. DQNNKKMVGLRGFNNQI [SNF2]
2. ERPAIEFETPTFLVSND [RPN14]
3. EDRNKIHQYLFQEGVVV [RPS10A]
4. MQLEEELMKLDGTEYVL [MED6]
5. FSWISVVNDLVGEKLVV [SIR3]
6. YVMERPKNVPTSKWLNS [YDL116W/NUP84]
7. PKNYSLHGLRSFYDAIF [YJL039C/NUP192]
8. SVDIGVETILSGKARIC [FAS2]

Data returned:
1. 3.37
2. 2.9
3. 2.61
4. 3.26
5. 2.84
6. 2.82
7. 2.4
8. 2.78

Kindly give each listed record's protein stability index.
1. LNECLKTIQINNEKVVQ [YML031W/NDC1]
2. PDFKPWEHTAAEDQILA [SRB8]
3. LPNIYPSTRCKLKLLRM [RPT2]
4. KGEMKGSAITGPVGKEC [RPL23A]
5. QIPLHRAASVGSLKLIE [NAS6]

Data returned:
[1.11, 3.02, 1.59, 3, 1.83]

Kindly give each listed record's protein stability index.
1. NAEATKEEFSSAENRDE [CSE2]
2. LHNFESVAPTKQREIVK [NUT1]

Data returned:
[3.28, 2.6]

Kindly give each listed record's protein stability index.
1. TEALLLEHDVEYRPFSK [DIS3]
2. GIRWELISRLCPNSTGA [RPT1]
3. QPSDVKPTSHKQLQQPK [SIR4]
4. TKQIQSVRIDGRKVLQK [SIR4]
5. MKESVVEINSSESDLDE [ESC2]

Data returned:
1: 3.3; 2: 2.19; 3: 3.06; 4: 2.02; 5: 3.16
